Values were extracted from patent US12522594B2.

# TARGET ENTITY: AHR (Homo sapiens)
# Sequence (P35869 11-848): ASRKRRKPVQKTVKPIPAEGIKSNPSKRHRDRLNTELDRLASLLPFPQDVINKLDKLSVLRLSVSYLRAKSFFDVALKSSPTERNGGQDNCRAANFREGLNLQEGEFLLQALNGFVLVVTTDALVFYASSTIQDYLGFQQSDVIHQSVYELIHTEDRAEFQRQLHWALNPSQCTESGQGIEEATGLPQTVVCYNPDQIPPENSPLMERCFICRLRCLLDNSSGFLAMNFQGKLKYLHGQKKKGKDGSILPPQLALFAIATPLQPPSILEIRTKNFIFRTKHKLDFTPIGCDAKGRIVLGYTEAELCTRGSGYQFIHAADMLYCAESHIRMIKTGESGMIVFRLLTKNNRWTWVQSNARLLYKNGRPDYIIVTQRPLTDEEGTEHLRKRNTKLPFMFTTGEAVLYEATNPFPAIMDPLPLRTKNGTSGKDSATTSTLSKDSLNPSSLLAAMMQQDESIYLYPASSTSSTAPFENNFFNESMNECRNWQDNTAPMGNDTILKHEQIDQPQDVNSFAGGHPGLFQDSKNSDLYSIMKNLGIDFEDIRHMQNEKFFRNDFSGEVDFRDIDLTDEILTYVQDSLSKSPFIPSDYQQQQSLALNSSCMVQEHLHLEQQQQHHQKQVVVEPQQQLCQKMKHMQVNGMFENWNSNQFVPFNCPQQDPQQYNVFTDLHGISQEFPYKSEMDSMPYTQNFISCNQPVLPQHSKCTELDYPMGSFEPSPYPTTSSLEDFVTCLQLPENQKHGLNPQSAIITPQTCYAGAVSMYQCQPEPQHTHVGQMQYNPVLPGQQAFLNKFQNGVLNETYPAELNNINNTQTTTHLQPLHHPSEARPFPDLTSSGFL
# PROTOCOL DESCRIPTION: In vitro assay 1: antagonism in human cell line (transactivation assay, U87 cells prestimulated with kynurenic acid, DRE firefly luciferase reporter)
# Assay type: cell-based
# Parameters: host or cells: U87 glioblastoma cells, stably transfected with DRE firefly luciferase and renilla reporter constructs
# TEST SETTINGS: 150 uM kynurenic acid, 20 hours, read-out: Assay 1: AHR-luc Hum Antagonism IC50
PROPERTY MEASURED: pIC50
Please treat pIC50 as minus the base-10 logarithm of the molar concentration.

// below: answered compounds
Cn1cc(-n2nc(-c3ccc(C(F)(F)F)cc3)cc(C(=O)N[C@H](CO)CF)c2=O)cn1 | 8.79
CC(C)(O)CNC(=O)c1cc(-c2ccc(Cl)cc2)nn(-c2cnn(C(F)F)c2)c1=O | 6.85
CC(C)(O)CNC(=O)c1cc(-c2ccc(Cl)cc2)nn(-c2ccnnc2)c1=O | 6.23

-- ask Reported pIC50, compound "O=C(N[C@H](CO)C(F)(F)F)c1cc(-c2ccc(Cl)cc2)nn(-c2cnn(C(F)F)c2)c1=O" : ____
-- reply 8.04

-- ask Please give the measured pIC50 for this compound: C[C@]1(O)CCC[C@H]1NC(=O)c1cc(-c2ccc(OC(F)(F)F)cc2)nn(-c2cccnc2)c1=O (single isomer, unassigned) [Example 330]
-- reply 7.03

-- ask What measured pIC50 goes with Cc1ccc(-c2cc(C(=O)NC(CO)C(C)C)c(=O)n(-c3cnn(C)c3)n2)cc1 (stereo not shown) [Example 1] ?
-- reply 8.13

-- ask Entry under review: "CC(C)(O)CNC(=O)c1cc(-c2ccc(Cl)cc2)nn(-c2cncnc2)c1=O" . Reported pIC50?
-- reply 6.86
